Provenance of the data: patent US20220348651A1

Target: T1, human ENTPD2 (Homo sapiens, UniProt Q9Y5L3)
T1 construct: residues 29-462 of human or cyno ENTPD2 were cloned into expression vector; GP67 signal peptide (N); made in house; host or cells: High Five (Trichoplusia ni) insect cells, baculovirus
T1 sequence (Q9Y5L3 29-462): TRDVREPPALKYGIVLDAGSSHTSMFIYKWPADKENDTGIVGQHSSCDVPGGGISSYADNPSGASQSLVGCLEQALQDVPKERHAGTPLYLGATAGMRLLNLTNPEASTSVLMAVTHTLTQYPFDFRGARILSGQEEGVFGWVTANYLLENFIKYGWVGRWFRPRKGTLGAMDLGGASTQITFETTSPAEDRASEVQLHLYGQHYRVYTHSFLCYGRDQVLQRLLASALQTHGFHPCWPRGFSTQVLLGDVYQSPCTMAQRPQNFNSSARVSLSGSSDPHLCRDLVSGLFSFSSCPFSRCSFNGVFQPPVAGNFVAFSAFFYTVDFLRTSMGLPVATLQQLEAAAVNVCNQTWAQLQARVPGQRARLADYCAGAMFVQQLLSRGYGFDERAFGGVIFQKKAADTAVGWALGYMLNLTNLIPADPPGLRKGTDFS
Assay: Biacore (SPR) affinity to human ENTPD2 ECD
Format: binding
Details: 25° C.
observedProperty: ka (M⁻¹ s⁻¹)
Provide only the numeric value, understood in M⁻¹ s⁻¹.

Challenge: Tell me its ka given mAb8: anti-human ENTPD2 antibody of Table 1; VH SEQ ID NO: 91, VL SEQ ID NO: 102 (antibody, V domains shown) VH: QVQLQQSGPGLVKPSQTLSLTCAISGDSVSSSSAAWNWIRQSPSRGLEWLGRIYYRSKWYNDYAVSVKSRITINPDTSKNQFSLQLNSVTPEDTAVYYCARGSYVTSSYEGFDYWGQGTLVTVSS VL: SYELTQPLSVSVALGQTARITCSGDNLPEKYAYWYQQKPGQAPVLVIYDDNKRPSGIPERFSGSNSGNTATLTISRAQAGDEADYYCQSYGKWGWTWVFGGGTKLTVL as the entry.
Response given: 290000

Challenge: Input mAb10: anti-human ENTPD2 antibody of Table 1; VH SEQ ID NO: 132, VL SEQ ID NO: 125 (antibody, V domains shown) VH: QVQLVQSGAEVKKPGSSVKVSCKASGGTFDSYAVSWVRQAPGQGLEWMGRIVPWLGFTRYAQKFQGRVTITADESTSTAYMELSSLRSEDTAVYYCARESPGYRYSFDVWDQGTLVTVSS VL: SYELTQPLSVSVALGQTARITCSGDAIGEKYVYWYQQKPGQAPVLVIYDDNNRPSGIPERFSGSNSGNTATLTISRAQAGDEADYYCASYDLQQARWVFGGGTKLTVL , output reported ka.
Response given: 340000

Challenge: Answer with reported ka of mAb7: humanized anti-human ENTPD2 antibody from mAb17; VH SEQ ID NO: 25, VL SEQ ID NO: 78 (antibody, V domains shown) VH: QVQLVQSGAEVVKPGASVKISCKASGYTFTDYNMDWVKQAPGQRLEWIGDINPKYDISTYNQQFKGKATITVDKSASTAYMELSSLRSEDTAVYYCARRGFFLYYGINYYYFDVWGQGTLVTVSS VL: EIVLTQSPATLSASPGEEITLSCSASSSVSYIHWYQQKPGQAPRLLIYSTSNLASGIPARFSGSGSGTFYTLTISSVEPEDAAVYYCHQWSSYPWTFGGGTKLEIK
Response given: 210000

Challenge: Please give the documented ka of mAb2: humanized anti-human ENTPD2 antibody from mAb17; VH SEQ ID NO: 25, VL SEQ ID NO: 29 (antibody, V domains shown) VH: QVQLVQSGAEVVKPGASVKISCKASGYTFTDYNMDWVKQAPGQRLEWIGDINPKYDISTYNQQFKGKATITVDKSASTAYMELSSLRSEDTAVYYCARRGFFLYYGINYYYFDVWGQGTLVTVSS VL: EIVLTQSPATLSASPGERITLSCSASSSVSYIHWYQQKPGQAPRLLIYSTSNLASGIPARFSGSGSGTFYTLTISSVEPEDAAVYYCHQWSSYPWTFGGGTKLEIK
Response given: 110000

New cases:
Challenge: Using known records, supply ka for mAb9: anti-human ENTPD2 antibody of Table 1; VH SEQ ID NO: 115, VL SEQ ID NO: 125 (antibody, V domains shown) VH: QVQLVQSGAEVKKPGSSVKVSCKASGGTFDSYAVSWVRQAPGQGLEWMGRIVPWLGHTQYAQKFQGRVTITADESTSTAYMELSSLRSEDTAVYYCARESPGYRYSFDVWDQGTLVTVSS VL: SYELTQPLSVSVALGQTARITCSGDAIGEKYVYWYQQKPGQAPVLVIYDDNNRPSGIPERFSGSNSGNTATLTISRAQAGDEADYYCASYDLQQARWVFGGGTKLTVL
Response given: 380000
